Exercise: for every item that follows, state its recorded activity change, negative = inhibition.
assay: NFAT Signaling Pathway (AID 444); conditions: Jurkat NFAT-bla M1, carbachol, beta-lactamase ratio, 5 h; at 7.69 µM (top of the series) unless noted;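 note: carbachol stimulus at about its EC50 of 1 µM final; % is set by controls: 0 for no effect and ±100 for the full control effect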
Results filed as inconclusive are left out.
Answers are plain numbers, in %.

Worked cases, activity change, negative = inhibition given:
O=C(Nc1ccccc1)N1CC[C@@]2(CCCN(C(=O)c3ccncc3)C2)C1 | -4.67
COc1cccc(Cn2c(=O)c(C)nc3cnc(Nc4cccc(OC)c4)nc32)c1 | 19
COc1ncc2nc(-c3ccc(Cl)cc3)c(=O)n(C)c2n1 | 8.73
COc1ccc(-c2nc3cnc(OC)nc3n(Cc3cccc(OC)c3)c2=O)cc1 | -10.2

In the following, a different compound is considered.
Return reported activity change, negative = inhibition; argument: COc1cccc(Cn2c(=O)c(-c3cccs3)nc3cnc(OC)nc32)c1
25.8

###

target: Ubiquitin carboxyl-terminal hydrolase 1 (Homo sapiens) (UniProt O94782); assay: Inhibitors of USP1/UAF1: Pilot qHTS (AID 504865); settings: purified USP1/UAF1, Ub-rhodamine cleavage fluorescence; series mostly up to 54.9 µM; note: nearly all actives have a fitted effect of over 35% in size
Sequence (O94782 whole entry, looked up): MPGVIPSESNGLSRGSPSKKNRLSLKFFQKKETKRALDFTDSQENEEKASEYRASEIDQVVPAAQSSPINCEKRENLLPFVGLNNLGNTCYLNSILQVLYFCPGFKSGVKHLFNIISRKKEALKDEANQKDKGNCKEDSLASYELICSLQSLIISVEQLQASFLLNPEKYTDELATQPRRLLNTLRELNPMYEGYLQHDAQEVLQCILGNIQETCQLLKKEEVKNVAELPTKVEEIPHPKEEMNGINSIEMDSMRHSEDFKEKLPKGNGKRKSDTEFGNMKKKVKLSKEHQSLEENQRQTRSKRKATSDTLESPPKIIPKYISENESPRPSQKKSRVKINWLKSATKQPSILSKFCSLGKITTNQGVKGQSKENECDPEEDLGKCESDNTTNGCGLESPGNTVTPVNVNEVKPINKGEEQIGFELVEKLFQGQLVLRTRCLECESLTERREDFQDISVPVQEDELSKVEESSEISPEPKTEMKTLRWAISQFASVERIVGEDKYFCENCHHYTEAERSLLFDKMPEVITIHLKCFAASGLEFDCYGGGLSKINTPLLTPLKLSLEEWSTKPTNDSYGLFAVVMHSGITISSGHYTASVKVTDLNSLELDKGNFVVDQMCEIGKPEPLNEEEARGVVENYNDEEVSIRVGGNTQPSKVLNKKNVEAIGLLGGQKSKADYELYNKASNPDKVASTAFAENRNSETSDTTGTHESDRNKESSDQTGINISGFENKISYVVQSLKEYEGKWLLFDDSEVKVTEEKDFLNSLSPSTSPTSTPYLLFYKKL
Results filed as inconclusive are left out. Calls of active or inactive are those of the source. Calls follow the shape of the dose curve; as a rule, active = well fitted inhibition curve with a large enough effect; inconclusive = small, poorly fitted or top-dose-only effect; inactive = flat fitted curve, though single readings scatter.
Hi there, use one of these labels in your reply, thanks! label 1 = active, label 0 = inactive

Solved cases below.
COc1cccc(Cn2c(=O)c(-c3ccc(Cl)cc3)nc3cnc(N4CCOCC4)nc32)c1 | label 0
COc1ccccc1-c1nccc(NCc2cccc(C)c2)n1 | label 1
CN(C)c1ncc2nc(-c3cccc(C#N)c3)c(=O)n(C[C@H]3CCCO3)c2n1 | label 0
N#CCCn1c(=O)c(-c2ccc(F)cc2)nc2cnc(OCc3ccccc3)nc21 | label 0

Now consider the entry below.
Look up the recorded call for C1CCN2C[C@H]3C[C@H](CN4CCCCC34)C2C1 (stereo not given in full) in this test.
label 0

###

target: Dual specificity protein kinase CLK4 (Homo sapiens); assay: qHTS Assay for Inhibitors of CDC-like Kinase 4 (Kinase-Glo Assay) (AID 1770); conditions: recombinant Clk4, Kinase-Glo ATP depletion luminescence; series mostly up to 66.7 µM; note: nearly all actives have a fitted effect of over 65% in size
Results filed as inconclusive are left out. The source made the active and inactive calls. The call rests on the fitted dose curve; in most records, active means well fitted inhibition curve with a large enough effect; inconclusive means small, poorly fitted or top-dose-only effect; inactive means flat fitted curve, though single readings scatter.
Hi there, use one of these labels in your reply, thanks! 1 for active, -1 for inactive

Solved cases below.
Cn1cc(-c2nc3cnc(N4CCNCC4)nc3n(Cc3ccc(F)cc3)c2=O)c2ccccc21 | -1
COCCNc1ccnc(-c2ccccc2C)n1 | -1
COc1ccc2[nH]cc(CCNc3ncnc4ccc(-c5ccc6c(c5)OCO6)cc34)c2c1 | 1
COCCn1c(=O)c(-c2cccc(Cl)c2)nc2cncnc21 | -1
COc1cccc(Cn2c(=O)c(-c3cc(F)cc(F)c3)nc3cnc(N4CCNCC4)nc32)c1 | -1
Cc1noc(C)c1-c1nc(NCc2cccs2)c2ccccc2n1 | -1

Look up the recorded call for Cn1cc(-c2nc3cnc(N4CCOCC4)nc3n(CCC#N)c2=O)c2ccccc21 in this test.
-1

Look up the recorded call for N#CCCn1c(=O)c(-c2cc(F)cc(F)c2)nc2cnc(N3CCOCC3)nc21 in this test.
-1

Look up the recorded call for COc1cccc(-c2nc(NCc3cccs3)c3ccccc3n2)c1 in this test.
1

Look up the recorded call for COc1ccccc1CNc1ncnc2ccc(-c3ccoc3)cc12 in this test.
1

Look up the recorded call for COCCn1c(=O)c(C)nc2cncnc21 in this test.
-1

Look up the recorded call for Cc1noc(C)c1-c1nc(NCc2ccccc2)c2ccccc2n1 in this test.
-1

Look up the recorded call for COc1ncc2ncc(=O)n(CCc3ccccc3)c2n1 in this test.
1

Look up the recorded call for Cc1cnc(CNc2ncncc2-c2cccc(NS(C)(=O)=O)c2)cn1 in this test.
-1

###

Molecular target: Cytochrome P450 3A4 (Homo sapiens)
Assay: qHTS Assay for Activators of Cytochrome P450 3A4 (AID 885); note: nearly all actives have a fitted effect of over 65% in size
Settings: recombinant CYP3A4, Luciferin-PPXE luminescence, 60 min; series mostly up to 57.1 µM
Method: NIH Molecular Libraries Screening Centers Network [MLSCN] NIH Chemical Genomics Center [NCGC] The P450 gene superfamily is involved in the metabolism and clearance of xenobiotics. […] The luciferin is then measured by luminescence after the addition of a luciferase detection reagent. […] Inhibitors and some substrates limit the production of luciferin, and decrease measured luminescence; activators increase the production of luciferin and luminescence. […]
Active and inactive are the calls of the source. Calls come from the whole dose curve; as a rule, active = well fitted activation curve with a large enough effect; inconclusive = small, poorly fitted or top-dose-only effect; inactive = no such curve, though single readings can be large or run the other way.
measurement.kind: outcome

Worked cases, outcome given:
COc1ccc(C(=O)N2CCC[C@@]3(CCN(c4cccc(-c5ccccc5)c4)C3)C2)cc1 | inactive
Cc1ccccc1-c1cncnc1N1CCN(C)CC1 | inactive
COc1ccccc1-c1nc(NCCN2CCOCC2)c2ccccc2n1 | inactive
CS(=O)(=O)Nc1cccc(-c2nc(NCc3cccs3)c3ccccc3n2)c1 | inactive

Return reported outcome; argument: COc1ccc(-n2c(=O)c(CCc3ccccc3)nc3cnc(N4CCOCC4)nc32)cc1
inactive

###

assay: AP1 Signaling Pathway (AID 357); details: ME-180 (cervical carcinoma) AP-1-bla reporter, EGF-induced, beta-lactamase ratio, 5 h; at 7.69 µM (top of the series) unless noted;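 note: ME-180 reporter cells stimulated with EGF at its EC50 level; % is set by controls: 0 for no effect and ±100 for the full control effect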
Results filed as inconclusive are left out.
measurement.kind: activity change, negative = inhibition (%)
Answers are plain numbers, in %.

COc1cccc(Cn2c(=O)cnc3cnc(OC)nc32)c1 | 17.7
c1cncc(-c2nccc(NCc3cccs3)n2)c1 | 4.03
COc1ccc(Oc2ncc3ncc(=O)n(Cc4cccs4)c3n2)cc1 | -29.2

Respectfully, I request activity change, negative = inhibition for each entry included below.
1. COCCn1c(=O)cnc2cnc(Oc3cccc(Cl)c3)nc21
2. CS(=O)(=O)N1CCC[C@@]2(CCN(C(=O)Nc3cccc(C#N)c3)C2)C1
3. COc1ccccc1CNc1cc(-c2ccccc2C(F)(F)F)ncn1
4. O=C(c1cnccn1)N1CCC2(CC1)CN(Cc1nccs1)C2
5. COc1ccccc1CNc1ncncc1-c1cccc(NS(C)(=O)=O)c1
6. COc1ccc(C(=O)N2CCC3(CCCN(Cc4ccccc4OC)C3)CC2)cc1
7. COc1ccccc1CCn1c(=O)c(-c2ccc(Cl)cc2)nc2cncnc21

1.86
-2.32
-11.1
-5.34
-18.5
0.332
10.2

###

experiment: Cellular Toxicity (caspase-3) HUV-EC-C (AID 656); details: HUV-EC-C cells, caspase-3 activation (apoptosis), vehicle = 0, 100 µM tamoxifen = 100%; series mostly up to 92.2 µM;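 note: cells exposed to compound for 16 h; 0% = DMSO basal and 100% = 100 µM tamoxifen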
Activity calls are given as the source filed them. Calls come from the whole dose curve; as a rule, active = well fitted curve in the direction sought with a large enough effect; inconclusive = small, poorly fitted or top-dose-only effect, or another doubt; inactive = no such curve, though single readings can be large or run the other way.
measurement.kind: outcome

C=C(C)[C@H]1CC=C(C)C(=O)C1 | inactive
COS(C)(=O)=O | inactive
Cc1occc(=O)c1O | inactive
CC1=CC(=O)CC(C)(C)C1(O)/C=C/C(C)=C\C(=O)O (centres undefined) | inactive

###

assay: NFAT Signaling Pathway (AID 444); conditions: Jurkat NFAT-bla M1, carbachol, beta-lactamase ratio, 5 h; at 38 µM (top of the series);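 note: carbachol stimulus at about its EC50 of 1 µM final; % is set by controls: 0 for no effect and ±100 for the full control effect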
Results filed as inconclusive are left out.
measurement.kind: activity change, negative = inhibition (%)
One number for each entry, in %.

Worked cases, activity change, negative = inhibition given:
C[C@@H](COc1ccccc1)N(CCCl)Cc1ccccc1 | -22.8
CC(=O)O[C@]1(C(C)=O)CC[C@@H]2[C@@H]3C=C(Cl)C4=CC(=O)[C@H]5C[C@@H]5[C@]4(C)[C@H]3CC[C@]21C | -9.31
C[C@@H]1c2cccc(O)c2C(O)=C2C(=O)[C@@]3(O)C(O)=C(C(N)=O)C(=O)[C@@H](N(C)C)[C@@H]3[C@@H](O)[C@@H]21 | -5.4
C[C@@H]1COc2c(N3CCN(C)CC3)c(F)cc3c(=O)c(C(=O)O)cn1c23 | 4.93
C[C@@]12CCC(=O)C=C1CC[C@@H]1[C@@H]2[C@H](O)C[C@]2(C)[C@@H]1CC[C@]2(O)C(=O)CO | -0.823

Respectfully, I request activity change, negative = inhibition for each entry included below.
1. C=CCc1ccccc1OC[C@H](O)CNC(C)C
2. CC1=C(C(=O)O)N2C(=O)[C@@H](NC(=O)[C@@H](N)c3ccccc3)[C@@H]2SC1
3. NC(=O)c1cc[n+](CC2=C(C(=O)O)N3C(=O)[C@@H](NC(=O)[C@H](c4ccccc4)S(=O)(=O)[O-])[C@@H]3SC2)cc1
4. C[C@@]12C[C@@H](O)[C@H]3[C@@H](CCC4=CC(=O)CC[C@]43C)[C@H]1CC[C@H]2C(=O)CO
5. CC[C@]1(C)CC(=O)NC1=O
6. N[C@@H](CO)C(=O)NNCc1ccc(O)c(O)c1O
7. CCN(CC)CCC[C@H](C)Nc1ccnc2cc(Cl)ccc12
8. CO[C@]1(NC(=O)CSCC#N)C(=O)N2C(C(=O)O)=C(CSc3nnnn3C)CS[C@H]21

1. -5.09
2. -0.753
3. 3.09
4. -0.571
5. 0.552
6. -7.62
7. -24.9
8. -10.8

Respectfully, I request activity change, negative = inhibition for each entry included below.
1. O[C@@](CCN1CCCCC1)(c1ccccc1)C1CCCCC1
2. CC(=O)OCC1=C(C(=O)O)N2C(=O)[C@@H](NC(=O)Cc3cccs3)[C@@H]2SC1

[-75.1, 3.89]
